# ASSAYED SYSTEM: P2X2/P2X3 heterotrimeric receptor (Homo sapiens) (UniProt Q9UBL9+P56373)
# PROTOCOL TEXT: Antagonist activity against human P2X2/3 receptor expressed in HEK293/1321N1 cells assessed as inhibition of alpha,beta-meATP/ATP-induced calcium influx at 3 uM by Fluo-4 dye based FLIPR assay
# Format: functional, cell-based
ATTRIBUTE MEASURED: inhibition (%)

[1] COc1ccc(CN(C)c2ncnc3c2CN(c2ccc(C)cn2)CC3)cc1
[2] COc1cc(CCNc2ncnc3c2CN(c2ccc(C)cn2)CC3)cc(OC)c1
Of 1 and 2 , whose reported inhibition is the larger number? Answer format: the label of the selected item. 2
(2: 50%, 1: 0%)

###

# ASSAYED SYSTEM: P2X2/P2X3 heterotrimeric receptor (Homo sapiens) (UniProt Q9UBL9+P56373)
# PROTOCOL TEXT: Antagonist activity against human P2X2/3 receptor expressed in HEK293/1321N1 cells assessed as inhibition of alpha,beta-meATP/ATP-induced calcium influx at 3 uM by Fluo-4 dye based FLIPR assay
# Assay type: functional, cell-based
ATTRIBUTE MEASURED: inhibition (%)

Cc1ccc(N2CCc3ncnc(N(C)Cc4ccc(C(F)(F)F)cc4)c3C2)nc1 :: 0
Cc1ccc(N2CCc3ncnc(NCc4cc(Cl)ccc4F)c3C2)nc1 :: 50
Cc1ccc(N2CCc3ncnc(NCc4ccc(Cl)cc4Cl)c3C2)nc1 :: 0
Cc1ccc(N2CCc3ncnc(N(C)Cc4ccccc4)c3C2)nc1 :: 0
Clc1cccnc1N1CCc2ncnc(Nc3ccccc3)c2C1 :: 0

[A] COc1cccc(CN(C)c2ncnc3c2CN(c2ccc(C)cn2)CC3)c1
[B] Cc1ccc(N2CCc3ncnc(NCCc4ccc(Cl)c(Cl)c4)c3C2)nc1
For this pair, A and B , which shows a numerically higher inhibition? // output: label of the selected item B
(B: 50%, A: 0%)

[P] Cc1ccc(CN(C)c2ncnc3c2CN(c2ccc(C)cn2)CC3)cc1
[Q] COc1cc(CNc2ncnc3c2CN(c2ccc(C)cn2)CC3)cc(OC)c1
[R] Cc1ccc(N2CCc3ncnc(NCc4cccc(C(F)(F)F)c4)c3C2)nc1
Order these by inhibition, descending, and give the full ranking. Please respond by ranking the labels in the order requested. R, P, Q

[A] CN1CC(C)(C)c2ccc(Nc3ncnc4c3CN(c3ncccc3Cl)CC4)cc21
[B] Cc1ccc(N2CCc3ncnc(NCc4ccc(Cl)cc4F)c3C2)nc1
[C] Cc1ccc(N2CCc3ncnc(NCc4ccc(C)cc4C)c3C2)nc1
Form: Sort by [inhibition] Order [ ascending ] Write the labels out in the order the request specifies. A, C, B

[1] Cc1ccc(N2CCc3ncnc(NCc4cc(Cl)cc(Cl)c4)c3C2)nc1
[2] COc1ccc(CCNc2ncnc3c2CN(c2ccc(C)cn2)CC3)cc1OC
[3] COc1ccc(CN(C)c2ncnc3c2CN(c2ccc(C)cn2)CC3)cc1OC
Ascending sort, inhibition. Please write the labels in the order that was asked for. 1, 3, 2

###

The following compounds are listed with their measured inhibition values.
# ASSAYED SYSTEM: P2X2/P2X3 heterotrimeric receptor (Homo sapiens) (UniProt Q9UBL9+P56373)
# PROTOCOL TEXT: Antagonist activity against human P2X2/3 receptor expressed in HEK293/1321N1 cells assessed as inhibition of alpha,beta-meATP/ATP-induced calcium influx at 3 uM by Fluo-4 dye based FLIPR assay
# Assay type: functional, cell-based

See these solved cases before continuing.
Cc1ccc(N2CCc3ncnc(NCc4cccc(F)c4F)c3C2)nc1 :: > 75%
Cc1ccc(N2CCc3ncnc(NCc4ccc(Cl)cc4)c3C2)nc1 :: > 75%
Cc1ccc(N2CCc3ncnc(NCCc4cccc(C(F)(F)F)c4)c3C2)nc1 :: > 75%
Cc1ccc(N2CCc3ncnc(NCc4ccc(C(F)(F)F)cc4)c3C2)nc1 :: > 75%
Cc1ccc(CCNc2ncnc3c2CN(c2ccc(C)cn2)CC3)cc1 :: > 75%
Cc1ccc(N2CCc3ncnc(NCc4ccc(F)c(F)c4)c3C2)nc1 :: > 75%
Cc1ccc(N2CCc3ncnc(NCc4ccc5c(c4)OCO5)c3C2)nc1 :: > 75%
Cc1ccc(N2CCc3ncnc(NCCc4ccc(Cl)cc4)c3C2)nc1 :: > 75%
O=S(=O)(c1ccc(Nc2ncnc3c2CN(c2ncccc2Cl)CC3)cc1)C(F)(F)F :: 0%
Cc1ccc(N2CCc3ncnc(NCCc4ccccc4Cl)c3C2)nc1 :: > 75%

Write down inhibition measured for item Cc1ccc(N2CCc3ncnc(NCc4cc(C(F)(F)F)cc(C(F)(F)F)c4)c3C2)nc1 0%

Given the compound Cc1ccc(N2CCc3ncnc(NCCc4ccccc4)c3C2)nc1 , write its reported inhibition. > 75%

Recall and state the measured inhibition for Cc1ccc(N2CCc3ncnc(NCc4ccccc4C(F)(F)F)c3C2)nc1 . 50%
